# Tested on: S. aureus ATCC 25923
# assay info: MIC by serial dilutions in broth (visible growth);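 note: broth tubes inoculated at about 5×10^5 CFU/ml, incubated 16-24 h at 35 °C in air, growth judged by transmitted light against an unexposed refrigerated inoculum tube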
# Type: cell-based
# condition: ^64Zne 375 mcg/ml
assay metric: visible growth

# molecule, assay metric, result
data = [
    ("NC(CC(=O)O)C(=O)O (stereo not shown) [^64Zne aspartate]", "visible growth", "−"),
    ("O=S(=O)([O-])[O-].[64Zn+2] [^64Zne sulfate]", "visible growth", "−"),
    ("NC(CCC(=O)[O-])C(=O)[O-].[64Zn+2] (stereo not shown) [^64Zne glutamate]", "visible growth", "−"),
    ("O=C([O-])CC(NCCNC(CC(=O)O)C(=O)O)C(=O)[O-].[64Zn+2] (stereo not shown)", "visible growth", "−"),
]
